These data points were gathered from patent US20030068675.

# target desc: T1, ZFP SBS#722 (synthetic)
# T1 chain: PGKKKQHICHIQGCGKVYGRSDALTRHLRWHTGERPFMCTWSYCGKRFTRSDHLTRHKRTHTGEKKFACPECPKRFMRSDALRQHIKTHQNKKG
# test method notes: EMSA
# assay conditions: tags: MBP fusion
measured quantity: Kd (nM)
Report the value in nM with no unit label.

binder ATGGGGGTGG (dsDNA) DNA 1: ATGGGGGTGG DNA 2: CCACCCCCAT , Kd observed: 0.7
